The reported numbers originate from patent US20250270339A1.

# TARGET_UNDER_TEST: T1, Full length human TfR on CHO cells (human, UniProt P02786 1-760)
# T1 construct: also called CHO + huTfR; CHO + hTfR
# PROTOCOL_DESCRIPTION: FACS MFI, supernatant
TEST_READOUT: fold over parental (CHO WT)

BINDER | TEST_READOUT | VALUE_REPORTED
TfR11 (mouse hybridoma antibody) (antibody, V domains shown, mouse IgG in hybridoma supernatant) VH: EVQLQQSGTVLARPGASVKMSCKASGYSFTSYWMHWVKQRPGQGLEWIGAIFPGNIDTIYNQKFKDKAKLTAVTSASTAYMELSSLTNEDSAVYFCTRLYYDYVWGAGTTVTVSS VL: DIKMTQSPSSMYASLGERVTLTCKASQDINSYLSWFQQKPGKSPKTLIYHVNRLVDGVPSRFSGSGSGQDYSLTISSLEYEDMGIYYCLQYDEFPYTFGGGTKLEIK | fold over parental (CHO WT) | 290 fold
TfR30 (mouse hybridoma antibody) (antibody, V domains shown, mouse IgG in hybridoma supernatant) VH: QVQLQQSGPQLVRPGASVKISCKASGYSFTNYWLHWVKQRPGQGLEWIGMIDPSDSETRLNQKFKDKATLTVDKSSSTAYMQLSSPTSEDSAVYYCARWGGGYYGFAYWGQGTLVTVSA VL: DIVMTQSQKFMSTSVGDRVSITCKASQNVRTAVAWYQQKPGQSPKALIYLASNRHTGVPDRFTGSGSGTDFTLTISNVQSEDLADYFCLQHWNYPWTFGGGTKLEIK | fold over parental (CHO WT) | 169 fold
TfR27 (mouse hybridoma antibody) (antibody, V domains shown, mouse IgG in hybridoma supernatant) VH: QVQLQQPGSELVRPGASVKLSCKASGYTFTSYWMHWVKQRPGQGLEWIGNIYPGTGSTNYDEKFKSKATLTVDTSSSTAYMQLSSLTSEDSAVYYCTRSSYYGNFDTMDYWGQGTSVTVSS VL: QIFLTQSPAIMSASPGERVTMTCSASSSIRYMNWYQQKPGTSPKRWIYDTSELASGVPARFTGSGSGTSYSLTISSMEAEDAATYYCHQRSGYPWTFGGGTKLEIK | fold over parental (CHO WT) | 279 fold
TfR10 (mouse hybridoma antibody) (antibody, V domains shown, mouse IgG in hybridoma supernatant) VH: QVQLQQSGPELVKPGASVKMSCKASGYTFTSYYIHWVKQRPGQGLEWIGWIYPGDGNTNYNEKFKGKTTLTADKSSSTAYMLLSSLTSEDSAIYFCARDGSIPFAYWGQGTLVTVSA VL: DIVMTQSPSSLTVTAGEKVTMSCKSSQSLLNSGNQKNYLTWYQQKPGQPPKLLIYWASTRESGVPDRFTGSGSGTDFTLTISSVQAEDLAVYYCQNDYSYPLTFGAGTKLELK | fold over parental (CHO WT) | 389 fold
TfR22 (mouse hybridoma antibody) (antibody, V domains shown, mouse IgG in hybridoma supernatant) VH: DVQLQESGPGLVKPSQSLSLTCTVTGYSITSDYAWNWIRQFPGNKLEWMGYISYSGSTRYNPSLKSRISITRDTSKNQFFLQLNSVTTEDTATYYCTSWGYRYLEDYWGQGTSVTVSA VL: QIVLTQSPAIMSASPGERVTMTCSASSSISSMHWYQQKPGTSPKKWIYDTSKLASGVPARFSGSGSGTSYSLTISSMEAEDAATYYCHQRSSYPWTFGGGTKLEIK | fold over parental (CHO WT) | 290 fold
